- measurement target: Protein deacetylase HDAC6 (Homo sapiens, UniProt Q9UBN7)
- Sequence (Q9UBN7 whole entry): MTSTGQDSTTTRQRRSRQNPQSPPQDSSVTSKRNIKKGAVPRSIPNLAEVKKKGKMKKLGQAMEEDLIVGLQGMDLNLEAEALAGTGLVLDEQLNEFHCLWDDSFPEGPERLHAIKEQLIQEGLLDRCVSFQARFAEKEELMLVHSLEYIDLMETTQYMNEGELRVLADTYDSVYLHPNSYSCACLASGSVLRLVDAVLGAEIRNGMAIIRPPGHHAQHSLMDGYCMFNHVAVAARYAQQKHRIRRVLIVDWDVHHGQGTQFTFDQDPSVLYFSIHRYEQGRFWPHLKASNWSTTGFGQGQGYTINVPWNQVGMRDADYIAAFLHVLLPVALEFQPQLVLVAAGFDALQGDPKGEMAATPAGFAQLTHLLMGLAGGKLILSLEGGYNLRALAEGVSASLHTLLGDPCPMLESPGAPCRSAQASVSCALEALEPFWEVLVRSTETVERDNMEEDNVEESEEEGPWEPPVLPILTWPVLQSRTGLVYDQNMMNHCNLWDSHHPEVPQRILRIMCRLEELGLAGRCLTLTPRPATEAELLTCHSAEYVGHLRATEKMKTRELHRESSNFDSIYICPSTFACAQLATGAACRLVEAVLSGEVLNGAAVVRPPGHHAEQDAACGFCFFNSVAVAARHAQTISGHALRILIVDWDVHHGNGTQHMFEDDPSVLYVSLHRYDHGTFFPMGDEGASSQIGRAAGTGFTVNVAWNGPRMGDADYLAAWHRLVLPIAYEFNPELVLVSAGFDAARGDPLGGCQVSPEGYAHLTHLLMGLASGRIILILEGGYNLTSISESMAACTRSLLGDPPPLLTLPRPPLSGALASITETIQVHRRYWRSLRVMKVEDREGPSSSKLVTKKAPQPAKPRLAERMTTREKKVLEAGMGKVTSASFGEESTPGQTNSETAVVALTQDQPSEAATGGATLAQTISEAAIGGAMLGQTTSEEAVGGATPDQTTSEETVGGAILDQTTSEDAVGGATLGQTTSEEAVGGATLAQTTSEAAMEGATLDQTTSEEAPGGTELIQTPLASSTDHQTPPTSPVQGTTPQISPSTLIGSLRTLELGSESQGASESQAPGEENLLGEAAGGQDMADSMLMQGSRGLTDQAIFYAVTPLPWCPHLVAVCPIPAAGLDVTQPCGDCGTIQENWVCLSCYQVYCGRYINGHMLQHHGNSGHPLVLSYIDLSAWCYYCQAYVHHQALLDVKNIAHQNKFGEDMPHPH
- test method notes: Inhibition of recombinant human HDAC6
pKi: −log10 of the molar value.
outcome measure: pKi

Answered examples (5):
[[record]]
cpd_smiles = "Cc1cc(C)cc(C(=O)NOCCCCC(=O)NO)c1"
measurement_target = "Protein deacetylase HDAC6 (Homo sapiens, UniProt Q9UBN7)"
value = 6.38

[[record]]
cpd_smiles = "Cc1cc(C)cc(C(=O)NOCCCCCC(=O)NO)c1"
measurement_target = "Protein deacetylase HDAC6 (Homo sapiens, UniProt Q9UBN7)"
value = 7.30

[[record]]
cpd_smiles = "O=C(CCCCCONC(=O)c1c(Cl)cncc1Cl)NO"
measurement_target = "Protein deacetylase HDAC6 (Homo sapiens, UniProt Q9UBN7)"
value = 6.46

[[record]]
cpd_smiles = "O=C(CCCCCONC(=O)c1cc(I)cc(I)c1I)NO"
measurement_target = "Protein deacetylase HDAC6 (Homo sapiens, UniProt Q9UBN7)"
value = 6.48

[[record]]
cpd_smiles = "COc1cc(C(=O)NOCCCCCC(=O)NO)cc(OC)c1OC"
measurement_target = "Protein deacetylase HDAC6 (Homo sapiens, UniProt Q9UBN7)"
value = 7.22


1: O=C(CCCCCONC(=O)c1cc(C(F)(F)F)cc(C(F)(F)F)c1)NO
2: CC(C)(C)c1cc(C(=O)NOCCCCCC(=O)NO)cc(C(C)(C)C)c1
Lab note: record which item had the higher pKi, 1 or 2 . Kindly give the label for the entry you pick.
1
(1: 6.25, 2: 5.67)

1: O=C(CCCCCONC(=O)c1cc(F)cc(F)c1)NO
2: COc1cc(OC)cc(C(=O)NOCCCCCC(=O)NO)c1
I'd appreciate it if you could identify which of 1 and 2 has the greater pKi. Answer format: the label of the selected item.
2

====

- measurement target: Histone deacetylase
- test method notes: Inhibition of HDAC in human Cal27 cells
- Format: cell-based
- run parameters: cal-27
outcome measure: IC50 (µM)

[[record]]
cpd_smiles = "O=C(CCCCCONC(=O)c1cc(F)cc(F)c1)NO"
quantity_unit = "µM"
value = 3.77

[[record]]
cpd_smiles = "Cc1cc(C)cc(C(=O)NOCCCCCC(=O)NO)c1"
quantity_unit = "µM"
value = 0.55

[[record]]
cpd_smiles = "O=C(CCCCCONC(=O)c1cc(I)cc(I)c1I)NO"
quantity_unit = "µM"
value = 9.4

[[record]]
cpd_smiles = "COc1cc(C(=O)NOCCCCCC(=O)NO)cc(OC)c1OC"
quantity_unit = "µM"
value = 1.48


a: O=C(CCCCCONC(=O)c1c(Cl)cncc1Cl)NO
b: Cc1cc(C)cc(C(=O)NOCCCCC(=O)NO)c1
c: CC(C)(C)c1cc(C(=O)NOCCCCCC(=O)NO)cc(C(C)(C)C)c1
d: COc1cc(OC)cc(C(=O)NOCCCCCC(=O)NO)c1
Hello, I need these entries ordered by IC50, highest reading first. Thanks! Output the labels ranked as instructed.
a, b, c, d

1: O=C(CCCCCONC(=O)c1cc(Br)cc(Br)c1)NO
2: O=C(CCCCCONC(=O)c1cc(C(F)(F)F)cc(C(F)(F)F)c1)NO
Lab note: check whether 1 or 2 shows the higher recorded IC50. Pick one and reply with its label.
2

====

- measurement target: UniProt Q92769
- Sequence (Q92769 whole entry): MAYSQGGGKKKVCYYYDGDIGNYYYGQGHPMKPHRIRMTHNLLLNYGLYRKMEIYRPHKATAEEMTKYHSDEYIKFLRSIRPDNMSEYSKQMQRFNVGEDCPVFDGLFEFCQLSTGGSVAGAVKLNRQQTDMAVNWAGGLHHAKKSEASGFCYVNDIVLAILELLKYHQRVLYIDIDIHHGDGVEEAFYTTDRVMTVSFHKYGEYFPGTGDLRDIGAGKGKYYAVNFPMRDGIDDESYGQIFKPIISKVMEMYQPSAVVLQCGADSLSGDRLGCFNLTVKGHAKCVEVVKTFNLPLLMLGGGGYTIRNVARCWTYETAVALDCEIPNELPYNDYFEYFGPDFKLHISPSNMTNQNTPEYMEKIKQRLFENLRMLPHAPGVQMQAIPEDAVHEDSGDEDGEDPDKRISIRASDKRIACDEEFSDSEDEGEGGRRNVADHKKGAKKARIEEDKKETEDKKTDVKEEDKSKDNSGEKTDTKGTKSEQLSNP
- test method notes: Inhibition of recombinant human HDAC2
pKi: −log10 of the molar value.
outcome measure: pKi

[[record]]
cpd_smiles = "COc1cc(C(=O)NOCCCCCC(=O)NO)cc(OC)c1OC"
outcome_measure = "pKi"
value = 7.05

[[record]]
cpd_smiles = "O=C(CCCCCONC(=O)c1cc(F)cc(F)c1)NO"
outcome_measure = "pKi"
value = 6.24

[[record]]
cpd_smiles = "O=C(CCCCCONC(=O)c1cc(I)cc(I)c1I)NO"
outcome_measure = "pKi"
value = 5.88

[[record]]
cpd_smiles = "Cc1cc(C)cc(C(=O)NOCCCCCC(=O)NO)c1"
outcome_measure = "pKi"
value = 7.10

[[record]]
cpd_smiles = "O=C(CCCCCONC(=O)c1c(Cl)cncc1Cl)NO"
outcome_measure = "pKi"
value = 5.87

[[record]]
cpd_smiles = "O=C(CCCCCONC(=O)c1cc(Br)cc(Br)c1)NO"
outcome_measure = "pKi"
value = 6.68

[[record]]
cpd_smiles = "O=C(CCCCCONC(=O)c1cc(C(F)(F)F)cc(C(F)(F)F)c1)NO"
outcome_measure = "pKi"
value = 6.26

[[record]]
cpd_smiles = "COc1cc(OC)cc(C(=O)NOCCCCCC(=O)NO)c1"
outcome_measure = "pKi"
value = 7.22


I: CC(C)(C)c1cc(C(=O)NOCCCCCC(=O)NO)cc(C(C)(C)C)c1
II: Cc1cc(C)cc(C(=O)NOCCCCC(=O)NO)c1
From the recorded data, which exceeds the other in pKi: I or II ? // caller expects the label of the chosen entry
II

====

- measurement target: Histone deacetylase 4 (Homo sapiens, UniProt P56524)
- Sequence (P56524 whole entry): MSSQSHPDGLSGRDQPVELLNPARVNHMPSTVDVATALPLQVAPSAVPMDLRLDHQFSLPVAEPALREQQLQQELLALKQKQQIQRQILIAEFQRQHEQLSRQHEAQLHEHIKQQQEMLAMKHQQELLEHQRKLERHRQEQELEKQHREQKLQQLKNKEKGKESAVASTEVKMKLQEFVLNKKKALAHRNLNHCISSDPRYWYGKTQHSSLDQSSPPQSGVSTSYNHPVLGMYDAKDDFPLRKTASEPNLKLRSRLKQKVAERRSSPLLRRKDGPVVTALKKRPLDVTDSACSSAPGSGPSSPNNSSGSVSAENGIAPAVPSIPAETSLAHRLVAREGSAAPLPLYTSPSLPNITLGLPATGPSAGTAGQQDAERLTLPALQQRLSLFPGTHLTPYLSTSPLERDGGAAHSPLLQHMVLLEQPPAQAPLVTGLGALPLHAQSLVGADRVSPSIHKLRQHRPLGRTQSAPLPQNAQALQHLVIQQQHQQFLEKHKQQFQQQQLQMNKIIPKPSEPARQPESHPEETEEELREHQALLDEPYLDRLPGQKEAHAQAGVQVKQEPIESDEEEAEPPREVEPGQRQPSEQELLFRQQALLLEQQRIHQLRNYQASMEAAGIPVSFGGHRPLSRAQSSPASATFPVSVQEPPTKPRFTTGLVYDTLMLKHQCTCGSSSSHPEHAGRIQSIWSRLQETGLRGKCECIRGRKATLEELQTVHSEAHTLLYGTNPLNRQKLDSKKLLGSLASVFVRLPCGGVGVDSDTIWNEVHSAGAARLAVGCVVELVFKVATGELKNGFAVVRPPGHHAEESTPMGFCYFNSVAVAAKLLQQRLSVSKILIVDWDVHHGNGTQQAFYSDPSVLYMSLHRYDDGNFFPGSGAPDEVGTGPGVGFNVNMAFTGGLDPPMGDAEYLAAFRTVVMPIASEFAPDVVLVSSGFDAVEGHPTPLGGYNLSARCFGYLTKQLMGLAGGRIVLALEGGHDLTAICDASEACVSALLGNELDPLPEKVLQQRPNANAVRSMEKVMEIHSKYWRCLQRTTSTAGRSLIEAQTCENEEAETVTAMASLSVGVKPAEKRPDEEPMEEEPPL
- test method notes: Inhibition of recombinant human HDAC4
outcome measure: Ki (µM)

Worked examples, 2 compounds total:
[[record]]
cpd_smiles = "O=C(CCCCCONC(=O)c1cc(Br)cc(Br)c1)NO"
measurement_target = "Histone deacetylase 4 (Homo sapiens, UniProt P56524)"
outcome_measure = "Ki"
quantity_unit = "µM"
value = 31.8

[[record]]
cpd_smiles = "O=C(CCCCCONC(=O)c1cc(C(F)(F)F)cc(C(F)(F)F)c1)NO"
measurement_target = "Histone deacetylase 4 (Homo sapiens, UniProt P56524)"
outcome_measure = "Ki"
quantity_unit = "µM"
value = 83.7


I: COc1cc(C(=O)NOCCCCCC(=O)NO)cc(OC)c1OC
II: COc1cc(OC)cc(C(=O)NOCCCCCC(=O)NO)c1
Pick the one with the larger Ki: I vs II Identify your pick by its label.
I

====

- Tested on: CAL-27
- test method notes: Cytotoxicity against human CAL27 cells assessed as reduction in cell viability by MTT assay
- Format: functional, cell-based
// reported pIC50 for each item listed
The scale used: pIC50 is minus the common logarithm of the concentration in molar units.

Provide the documented pIC50 with CAL-27 as the system for O=C(CCCCCONC(=O)c1cc(F)cc(F)c1)NO
5.10

Give recorded pIC50 with CAL-27 for the following molecule: O=C(CCCCCONC(=O)c1cc(C(F)(F)F)cc(C(F)(F)F)c1)NO
4.80
